B1: glmS ribozyme (parent)
chain: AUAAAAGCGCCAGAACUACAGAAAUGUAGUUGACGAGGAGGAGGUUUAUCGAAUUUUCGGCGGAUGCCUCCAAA

Variants of: B1
ASSAY PROCEDURE: kcat; higher = faster cleavage; RNA array
COND: with glucosamine-6-phosphate
Variants at the floor of the assay were thinned out.

- ENTRY SEQUENCE: "AUAAAAGCGCCAGAACUACAGAAAUGUAGUUGACGAGGAGGAGGAUUAUCGAAUUUUCGGCGGAUGCCUCGAAA"
  QUANTITY UNIT: "s⁻¹"
  RELATION QUALIFIER: "="
  kcat: 0.00102
- ENTRY SEQUENCE: "AUAAAAGCGCCAGAACUACAGAAAUGUAGCUGACGAGGAGGAGGUUUAUCGAAUUUUCGGCGGAUGCGUCCAAA"
  QUANTITY UNIT: "s⁻¹"
  RELATION QUALIFIER: "="
  kcat: "4.61e-05"
- ENTRY SEQUENCE: "AUAAAAGCGCCACAACUACAGAAAUGUAGUUGACGAGGAGGAGGUUUAUCGAAUUUUCGGCGGAUGCCACCAAA"
  QUANTITY UNIT: "s⁻¹"
  RELATION QUALIFIER: "="
  kcat: "2.51e-05"
- ENTRY SEQUENCE: "AUAAAAGCGCCAGAACUACAGAAAUGUAGUUGACGAGGAGGAGGGCUAUCGAAUUUUCGGCGGAUGCCUCCAAA"
  QUANTITY UNIT: "s⁻¹"
  RELATION QUALIFIER: "="
  kcat: 0.0148
- ENTRY SEQUENCE: "AUAAAAGCGCCAGAACUACAGAAAUGUAGUUGACGAGGAGGAGGUUUAUCGAAUUUUCGGCGGGUGACUCCAAA"
  QUANTITY UNIT: "s⁻¹"
  RELATION QUALIFIER: "="
  kcat: 0.00338
- ENTRY SEQUENCE: "AUAAAAGCGCCAGAACUACAGAAAUGUAGUUGACGAGGAGGAGGGUUAUCGAAUUUUCGGCGGAUGCCUCCAAA"
  QUANTITY UNIT: "s⁻¹"
  RELATION QUALIFIER: "="
  kcat: 0.011
- ENTRY SEQUENCE: "AUAAAAGCGCUAGAACUACAGAAAUGUAGUUGACGAGGAGGAGGUUUAUCGAACUCUCGGCGGAUGCCUCCAAA"
  QUANTITY UNIT: "s⁻¹"
  RELATION QUALIFIER: "="
  kcat: 0.000628
- ENTRY SEQUENCE: "AUAAAAGCGCCAGUACUACAGAAAUGUAGUUGACGAGGGGGAGGUUUAUCGAAUUUUCGGCGGAUGCCUCCAAA"
  QUANTITY UNIT: "s⁻¹"
  RELATION QUALIFIER: "="
  kcat: 0.0158
- ENTRY SEQUENCE: "AUAAAAGCGCCAGAACUACAGAAAUGUAGUUGACAAAGAGGAGGUUUAUCGAAUUUUCGGCGGAUGCCUCCAAA"
  QUANTITY UNIT: "s⁻¹"
  RELATION QUALIFIER: "<"
  kcat: "1e-05"
- ENTRY SEQUENCE: "AUAAAAGCGCCUGAACUACAGAAAUGUAGUUGACGAGGAGGAAGUUUAUCGAAUUUUCGGCGGAUGCCUCCAAA"
  QUANTITY UNIT: "s⁻¹"
  RELATION QUALIFIER: "="
  kcat: 0.000218
- ENTRY SEQUENCE: "AUAAAAGCGCCAGAAAUACAGAAAUGUAGUGGACGAGGAGGAGGUUUAUCGAAUUUUCGGCGGAUGCCUCCAAA"
  QUANTITY UNIT: "s⁻¹"
  RELATION QUALIFIER: "="
  kcat: 0.000292
- ENTRY SEQUENCE: "AUAAAAGCGCCACAACUACAGAAAUGUAGUCGACGAGGAGGAGGUUUAUCGAAUUUUCGGCGGAUGCCUCCAAA"
  QUANTITY UNIT: "s⁻¹"
  RELATION QUALIFIER: "="
  kcat: 0.0015
- ENTRY SEQUENCE: "AUAAAAGCGCCAGAACUACAGAAAUGUAGUUGUCGAGGAGGAGGUUUAUCGAUUUUUCGGCGGAUACCUCCAAA"
  QUANTITY UNIT: "s⁻¹"
  RELATION QUALIFIER: "="
  kcat: "7.62e-05"
